Just for reference, paper PMC10397247 is where these values come from.

- system: T1, P6-AA-1HAA-T
- T1 chain: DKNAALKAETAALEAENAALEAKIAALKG
- testProtocol: two-hybrid library CCmax;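 further: natural log of median RNA to DNA barcode read ratio; higher means stronger binding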
- condition: mean of both orientations
Catalogue of interaction score values

* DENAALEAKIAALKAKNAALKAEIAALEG [4H1401-AA] | 1.96
* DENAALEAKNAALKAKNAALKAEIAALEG [P5-AA-1HAA-N] | 1.25

Note: attention shifts to another entry.
Exam item: Which measured interaction score value corresponds to DENAALEAKHAALKAKNAALKAEIAALEG [P5-AA-1HAA-H] ?
Marked response: 1.49
